System Under Test: T1, 7F
T1 construct: also called HLA-A2 / point-mutant NY-ESO peptide 7F complex on T2 cells
Protocol Summary: flow cytometry on peptide-pulsed T2 cells, scFv 100 nM

Binder	standardized gMFI
NYA-1154 (scFv) scFv: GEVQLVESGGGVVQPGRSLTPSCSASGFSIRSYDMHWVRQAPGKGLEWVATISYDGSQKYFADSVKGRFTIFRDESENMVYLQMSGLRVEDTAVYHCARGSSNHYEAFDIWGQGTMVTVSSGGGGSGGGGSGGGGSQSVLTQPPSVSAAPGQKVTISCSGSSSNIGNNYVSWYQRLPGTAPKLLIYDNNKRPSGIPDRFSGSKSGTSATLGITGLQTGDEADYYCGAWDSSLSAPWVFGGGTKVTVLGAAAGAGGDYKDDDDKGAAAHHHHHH	6.08
NYA-2045 (scFv, also called NYA-2045 tag adduct) scFv: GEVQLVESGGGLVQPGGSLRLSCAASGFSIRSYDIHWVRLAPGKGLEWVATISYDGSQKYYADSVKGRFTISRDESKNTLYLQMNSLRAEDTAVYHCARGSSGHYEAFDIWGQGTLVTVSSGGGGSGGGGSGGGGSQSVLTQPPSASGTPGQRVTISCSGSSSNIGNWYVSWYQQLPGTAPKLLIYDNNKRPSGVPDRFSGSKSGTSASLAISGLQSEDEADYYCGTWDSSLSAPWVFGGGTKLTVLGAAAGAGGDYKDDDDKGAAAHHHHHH	1.99
NYC-0004 (scFv, not shown: small tags and cut ends, also called T1 scFv; NYC-0004 tag adduct) scFv: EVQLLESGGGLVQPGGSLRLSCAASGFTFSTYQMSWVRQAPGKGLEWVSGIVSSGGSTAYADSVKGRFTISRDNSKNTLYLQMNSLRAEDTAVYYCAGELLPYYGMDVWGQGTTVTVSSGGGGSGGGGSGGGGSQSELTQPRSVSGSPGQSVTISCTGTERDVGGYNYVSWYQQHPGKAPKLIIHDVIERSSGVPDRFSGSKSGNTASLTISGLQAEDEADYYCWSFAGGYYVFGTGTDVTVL	5.07
NYA-0001 (scFv, also called NYA-0001 tag adduct; NY-R119 expressed in a cultured mammalian cell) scFv: GEVQLVESGGGVVQPGRSLTPSCSASGFSIRSYDIHWVRQAPGKGLEWVATISYDGSQKYFADSVKGRFTIFRDESENMVYLQMSGLRVEDTAVYHCARGSSGHYEAFDIWGQGTMVTVSSGGGGSGGGGSGGGGSQSVLTQPPSVSAAPGQKVTISCSGSSSNIGNNYVSWYQQLPGTAPKLLIYDNNKRPSGIPDRFSGSKSGTSATLGITGLQTGDEADYYCGTWDSSLSAPWVFGGGTKVTVLGAAAGAGGDYKDDDDKGAAAHHHHHH	0.97
NYA-2035 (scFv) scFv: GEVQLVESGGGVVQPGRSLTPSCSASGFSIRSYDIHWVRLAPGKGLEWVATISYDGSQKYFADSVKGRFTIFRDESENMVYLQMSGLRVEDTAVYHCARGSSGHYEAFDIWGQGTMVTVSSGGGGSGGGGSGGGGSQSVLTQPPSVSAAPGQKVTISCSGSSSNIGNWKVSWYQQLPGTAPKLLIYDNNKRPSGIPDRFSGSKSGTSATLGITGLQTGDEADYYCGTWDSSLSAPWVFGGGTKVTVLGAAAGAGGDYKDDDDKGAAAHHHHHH	5.83
NYA-2060 (scFv, also called NYA-2060 tag adduct) scFv: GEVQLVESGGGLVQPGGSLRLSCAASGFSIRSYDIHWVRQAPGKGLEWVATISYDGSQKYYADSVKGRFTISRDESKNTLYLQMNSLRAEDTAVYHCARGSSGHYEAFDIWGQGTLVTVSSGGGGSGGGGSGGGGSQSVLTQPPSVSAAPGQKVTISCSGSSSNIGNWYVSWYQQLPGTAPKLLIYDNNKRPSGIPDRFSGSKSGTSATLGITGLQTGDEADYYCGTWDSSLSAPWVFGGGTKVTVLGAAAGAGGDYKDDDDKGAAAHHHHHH	2.51
NYA-2023 (scFv) scFv: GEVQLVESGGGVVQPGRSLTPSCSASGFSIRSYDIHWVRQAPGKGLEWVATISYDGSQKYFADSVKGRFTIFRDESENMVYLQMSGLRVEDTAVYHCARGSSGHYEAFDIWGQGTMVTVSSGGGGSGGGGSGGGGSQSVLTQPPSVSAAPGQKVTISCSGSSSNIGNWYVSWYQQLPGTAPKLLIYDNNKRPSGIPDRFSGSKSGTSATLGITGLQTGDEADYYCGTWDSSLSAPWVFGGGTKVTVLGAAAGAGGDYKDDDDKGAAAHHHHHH	4.72
NYA-2027 (scFv) scFv: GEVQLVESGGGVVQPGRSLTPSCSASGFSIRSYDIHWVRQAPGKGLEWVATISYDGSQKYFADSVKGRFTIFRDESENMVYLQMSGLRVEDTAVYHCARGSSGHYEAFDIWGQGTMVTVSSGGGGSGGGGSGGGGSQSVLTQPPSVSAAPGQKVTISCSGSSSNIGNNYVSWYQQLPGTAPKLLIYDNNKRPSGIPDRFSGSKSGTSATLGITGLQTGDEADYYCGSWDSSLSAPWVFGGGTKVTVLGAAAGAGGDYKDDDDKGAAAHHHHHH	5.41
NYC-0003 (scFv, not shown: small tags and cut ends, also called 3M4E5 scFv; NYC-0003 tag adduct) scFv: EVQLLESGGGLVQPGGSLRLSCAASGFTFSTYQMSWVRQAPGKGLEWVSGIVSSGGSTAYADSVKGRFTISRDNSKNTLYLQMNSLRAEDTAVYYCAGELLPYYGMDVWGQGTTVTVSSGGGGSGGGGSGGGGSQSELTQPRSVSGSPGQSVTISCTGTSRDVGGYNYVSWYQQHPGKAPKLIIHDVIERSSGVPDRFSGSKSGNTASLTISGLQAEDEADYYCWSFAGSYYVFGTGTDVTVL	3.99
NYA-2044 (scFv, also called NYA-2044 tag adduct) scFv: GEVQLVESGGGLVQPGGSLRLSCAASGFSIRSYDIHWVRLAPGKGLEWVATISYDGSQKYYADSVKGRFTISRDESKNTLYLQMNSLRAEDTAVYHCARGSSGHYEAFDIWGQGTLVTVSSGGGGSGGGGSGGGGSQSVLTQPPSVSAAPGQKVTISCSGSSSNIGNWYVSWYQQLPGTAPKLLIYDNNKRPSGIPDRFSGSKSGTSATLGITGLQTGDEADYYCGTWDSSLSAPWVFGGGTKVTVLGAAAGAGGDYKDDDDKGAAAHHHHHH	3.62
